system: large (Lg) crabgrass (Digitaria sanguinalis); assay: Test B pre-/postemergence plant response; assay type: in vivo; conditions: Postemergence, 500 g ai/ha; 0 to 100 scale (0 no effect, 100 complete control)
EXPERIMENTAL READOUT: Plant response rating, Crabgrass, Large

// worked examples, Plant response rating, Crabgrass, Large included
{"LINE NOTATION": "Clc1cccc(-c2ccccc2Oc2ncc(Br)cn2)n1", "Plant response rating, Crabgrass, Large": 0}
{"LINE NOTATION": "FC(F)(F)c1cccc(-c2ccccc2Oc2ncc(Cl)cn2)n1", "Plant response rating, Crabgrass, Large": 0}
{"LINE NOTATION": "Cn1ccc(-c2ccccc2Oc2ncc(Cl)cn2)n1", "Plant response rating, Crabgrass, Large": 0}

IN: Read the entry FC(F)(F)c1nccc(-c2ccccc2Oc2ncc(Cl)cn2)n1 and write its reported Plant response rating, Crabgrass, Large.
OUT: 20

IN: Read the entry Cn1nc(C(F)(F)F)cc1-c1ccccc1Oc1ncc(Cl)cn1 and write its reported Plant response rating, Crabgrass, Large.
OUT: 10

IN: Read the entry Clc1ccc(-c2c(Br)cccc2Oc2ncc(Cl)cn2)nc1 and write its reported Plant response rating, Crabgrass, Large.
OUT: 50

IN: Read the entry Cn1cc(-c2ccccc2Oc2ncc(Cl)cn2)cn1 and write its reported Plant response rating, Crabgrass, Large.
OUT: 10

IN: Read the entry Cn1nc(C(F)(F)F)cc1-c1ccccc1Oc1ncc(Br)cn1 and write its reported Plant response rating, Crabgrass, Large.
OUT: 10

----------
system: morningglory (Ipomoea spp.); experiment: Test B pre-/postemergence plant response; assay type: in vivo; conditions: Preemergence, 500 g ai/ha; 0 to 100 scale where 0 is no effect and 100 is complete control
Plant response rating, Morningglory reference

IN: Read the entry Clc1ccc(-c2ccc(Br)cc2Oc2ncc(Cl)cn2)nc1 and write its reported Plant response rating, Morningglory.
OUT: 0

IN: Read the entry Cn1nc(C(F)(F)F)cc1-c1c(C#N)cccc1Oc1ncc(Cl)cn1 and write its reported Plant response rating, Morningglory.
OUT: 90

IN: Read the entry Fc1cnc(Oc2ccccc2-c2cc(C(F)(F)F)on2)nc1 and write its reported Plant response rating, Morningglory.
OUT: 0

IN: Read the entry Cc1ccc(Oc2ncc(Cl)cn2)c(-c2cccc(OC(F)(F)F)c2)c1 and write its reported Plant response rating, Morningglory.
OUT: 0

IN: Read the entry N#Cc1cccc(Oc2ncc(F)cn2)c1-c1ccc(Cl)cn1 and write its reported Plant response rating, Morningglory.
OUT: 30

----------
Plant response rating, Galium reference
test system: galium (catchweed bedstraw, Galium aparine); assay: Test D pre-/postemergence plant response; format: in vivo; conditions: Preemergence; 31 g ai/ha; scale 0 to 100 (0 no effect, 100 complete control)
# print the numeric value only

// worked examples, Plant response rating, Galium included
{"LINE NOTATION": "FC(F)c1cc(-c2c(Cl)cccc2Oc2ncc(Cl)cn2)no1", "REPORTED MEASUREMENT": 90}
{"LINE NOTATION": "Cc1cc(-c2c(F)cccc2Oc2ncc(Cl)cn2)on1", "REPORTED MEASUREMENT": 80}
{"LINE NOTATION": "Cc1cc(-c2ccccc2Oc2ncc(Cl)cn2)on1", "REPORTED MEASUREMENT": 98}
{"LINE NOTATION": "Clc1cnc(Oc2ccccc2-c2cc(C3CC3)on2)nc1", "REPORTED MEASUREMENT": 50}

IN: State, for galium (catchweed bedstraw, Galium aparine), measured Plant response rating, Galium of the molecule listed here: Cc1cc(-c2ccccc2Oc2ncc(Cl)cn2)no1
OUT: 85

// provenance: patent US10131652B2
